B1: Peroxisomal bifunctional enzyme (Homo sapiens), Q08426 (parent)
chain: MAEYTRLHNALALIRLRNPPVNAISTTLLRDIKEGLQKAVIDHTIKAIVICGAEGKFSAGADIRGFSAPRTFGLTLGHVVDEIQRNEKPVVAAIQGMAFGGGLELALGCHYRIAHAEAQVGLPEVTLGLLPGARGTQLLPRLTGVPAALDLITSGRRILADEALKLGILDKVVNSDPVEEAIRFAQRVSDQPLESRRLCNKPIQSLPNMDSIFSEALLKMRRQHPGCLAQEACVRAVQAAVQYPYEVGIKKEEELFLYLLQSGQARALQYAFFAERKANKWSTPSGASWKTASARPVSSVGVVGLGTMGRGIVISFARARIPVIAVDSDKNQLATANKMITSVLEKEASKMQQSGHPWSGPKPRLTSSVKELGGVDLVIEAVFEEMSLKKQVFAELSAVCKPEAFLCTNTSALDVDEIASSTDRPHLVIGTHFFSPAHVMKLLEVIPSQYSSPTTIATVMNLSKKIKKIGVVVGNCFGFVGNRMLNPYYNQAYFLLEEGSKPEEVDQVLEEFGFKMGPFRVSDLAGLDVGWKSRKGQGLTGPTLLPGTPARKRGNRRYCPIPDVLCELGRFGQKTGKGWYQYDKPLGRIHKPDPWLSKFLSRYRKTHHIEPRTISQDEILERCLYSLINEAFRILGEGIAASPEHIDVVYLHGYGWPRHKGGPMFYASTVGLPTVLEKLQKYYRQNPDIPQLEPSDYLKKLASQGNPPLKEWQSLAGSPSSKL

variants of: B1; settings: with tnip1_human TNIP1, Q15025
Sequence (Q15025 whole entry): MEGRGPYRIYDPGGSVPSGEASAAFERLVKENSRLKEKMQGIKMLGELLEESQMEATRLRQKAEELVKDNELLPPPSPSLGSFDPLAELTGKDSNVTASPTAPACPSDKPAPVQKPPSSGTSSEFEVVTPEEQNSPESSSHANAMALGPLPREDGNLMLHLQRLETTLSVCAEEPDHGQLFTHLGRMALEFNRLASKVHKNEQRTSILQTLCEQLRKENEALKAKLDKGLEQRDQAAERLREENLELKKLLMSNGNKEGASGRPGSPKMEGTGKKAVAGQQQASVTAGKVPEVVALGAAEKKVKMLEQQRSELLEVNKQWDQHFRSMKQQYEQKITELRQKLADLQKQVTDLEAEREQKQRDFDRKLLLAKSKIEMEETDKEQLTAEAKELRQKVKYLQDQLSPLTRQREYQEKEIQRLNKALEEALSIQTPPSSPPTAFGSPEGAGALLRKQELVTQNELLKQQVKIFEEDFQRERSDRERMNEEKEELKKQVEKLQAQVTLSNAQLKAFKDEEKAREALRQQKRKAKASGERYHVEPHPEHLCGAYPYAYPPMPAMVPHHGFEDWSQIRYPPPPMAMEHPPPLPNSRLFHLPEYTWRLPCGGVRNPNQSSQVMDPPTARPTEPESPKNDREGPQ
Assay Readout: effect of a mutation on the interaction

L715S with no effect
S703F with no effect
R483Q with no effect
